Kindly state Estrogenic Activity (relative β-galactosidase activity) for each of the entries shown.
target: human ERα (Homo sapiens, UniProt P03372); construct: host or cells: Saccharomyces cerevisiae; assay: Yeast estrogen screen (YES) assay, agonistic activity (β-galactosidase reporter); assay type: cell-based; conditions: compounds at 1 µM; compared to DMSO (set as 1); triplicates
Sequence (P03372 whole entry): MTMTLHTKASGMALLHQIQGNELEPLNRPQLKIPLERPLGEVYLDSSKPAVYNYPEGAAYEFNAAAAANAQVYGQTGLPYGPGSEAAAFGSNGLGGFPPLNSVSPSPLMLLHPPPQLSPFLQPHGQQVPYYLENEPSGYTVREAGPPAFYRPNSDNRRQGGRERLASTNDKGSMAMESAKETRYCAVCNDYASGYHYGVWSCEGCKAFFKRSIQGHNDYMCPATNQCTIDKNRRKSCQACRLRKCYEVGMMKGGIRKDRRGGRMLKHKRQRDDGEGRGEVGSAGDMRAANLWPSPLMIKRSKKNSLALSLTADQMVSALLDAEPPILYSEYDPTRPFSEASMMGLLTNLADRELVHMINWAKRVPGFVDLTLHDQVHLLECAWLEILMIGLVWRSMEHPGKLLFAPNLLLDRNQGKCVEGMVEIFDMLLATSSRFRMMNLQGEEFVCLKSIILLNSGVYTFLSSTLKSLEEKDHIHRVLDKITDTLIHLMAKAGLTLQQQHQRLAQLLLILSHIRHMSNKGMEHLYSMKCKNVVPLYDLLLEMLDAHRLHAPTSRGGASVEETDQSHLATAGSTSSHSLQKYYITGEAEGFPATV
Lab note: jot down the number only; don't add units.

query: Quote Estrogenic Activity (relative β-galactosidase activity) reported for "COc1ccc(C(C)=C(c2ccc(O)cc2)c2ccc(Cl)cc2)cc1F" please.
result: 12.83

query: Find the measured Estrogenic Activity (relative β-galactosidase activity) of "COc1ccc(C(C)=C(c2ccc(Cl)cc2)c2ccc(OCCN3CCCC3)cc2)cc1" and report it.
result: 1.98

query: Given "CCN(CC)CCOc1ccc(C(=C(C)c2ccc(F)c(OC)c2)c2ccc(Cl)cc2)cc1" , respond with its Estrogenic Activity (relative β-galactosidase activity).
result: 1.37

query: Look up and state reported Estrogenic Activity (relative β-galactosidase activity) for "COc1ccc(C(C)=C(c2ccc(Cl)cc2)c2ccc(OCCN(C)C)cc2)cc1F"
result: 2.40

query: Give a short answer stating reported Estrogenic Activity (relative β-galactosidase activity) for "COc1cc(C(C)=C(c2ccc(Cl)cc2)c2ccc(OCCN3CCOCC3)cc2)ccc1F" .
result: 1.31

query: Return Estrogenic Activity (relative β-galactosidase activity) for the following molecule: "COc1ccc(C(C)=C(c2ccc(Cl)cc2)c2ccc(OCCN3CCCCCC3)cc2)cc1"
result: 1.80

query: Note down Estrogenic Activity (relative β-galactosidase activity) recorded for "COc1cc(C(C)=C(c2ccc(Cl)cc2)c2ccc(OCCCN(C)C)cc2)ccc1F"
result: 1.87

query: Give Estrogenic Activity (relative β-galactosidase activity) for "CCN(CC)CCOc1ccc(C(=C(C)c2ccc(OC)c(F)c2)c2ccc(Cl)cc2)cc1"
result: 2.40

query: For the molecule "CC(=C(c1ccc(Cl)cc1)c1ccc(OCCN2CCOCC2)cc1)c1ccccc1" , give its measured Estrogenic Activity (relative β-galactosidase activity) value.
result: 1.85

query: Item "CC(=C(c1ccc(Cl)cc1)c1ccc(OCCCN(C)C)cc1)c1ccccc1" : provide Estrogenic Activity (relative β-galactosidase activity)
result: 2.25

query: Provide only the value of recorded Estrogenic Activity (relative β-galactosidase activity) for "COc1cc(C(C)=C(c2ccc(Cl)cc2)c2ccc(OCCN(C)C)cc2)ccc1F"
result: 1.15

query: Could you please provide reported Estrogenic Activity (relative β-galactosidase activity) for "COc1cc(C(C)=C(c2ccc(Cl)cc2)c2ccc(OCCN3CCCCC3)cc2)ccc1F" ? Thanks!
result: 1.19

query: Tell me its Estrogenic Activity (relative β-galactosidase activity) given "COc1cc(C(C)=C(c2ccc(O)cc2)c2ccc(Cl)cc2)ccc1F" as the entry.
result: 6.62

query: Check the records and state Estrogenic Activity (relative β-galactosidase activity) for "COc1ccc(C(C)=C(c2ccc(Cl)cc2)c2ccc(OCCN3CCCCC3)cc2)cc1"
result: 3.65

query: Tell me Estrogenic Activity (relative β-galactosidase activity) reported for "COc1ccc(C(C)=C(c2ccc(Cl)cc2)c2ccc(OCCN3CCOCC3)cc2)cc1F"
result: 1.76

query: Give a short answer stating reported Estrogenic Activity (relative β-galactosidase activity) for "COc1cc(C(C)=C(c2ccc(Cl)cc2)c2ccc(OCCN3CCCCCC3)cc2)ccc1F" .
result: 1.78

query: Quick one: give measured Estrogenic Activity (relative β-galactosidase activity) for "CC(=C(c1ccc(Cl)cc1)c1ccc(OCCN2CCCCC2)cc1)c1ccccc1"
result: 2.87

query: Provide only the value of recorded Estrogenic Activity (relative β-galactosidase activity) for "COc1cc(C(C)=C(c2ccc(Cl)cc2)c2ccc(OCCN3CCCC3)cc2)ccc1F"
result: 1.41

query: Please report Estrogenic Activity (relative β-galactosidase activity) for the following molecule: "CC(=C(c1ccc(Cl)cc1)c1ccc(OCCN2CCCC2)cc1)c1ccccc1"
result: 2.88

query: For the molecule "COc1ccc(C(C)=C(c2ccc(Cl)cc2)c2ccc(OCCN3CCCC3)cc2)cc1F" , give its measured Estrogenic Activity (relative β-galactosidase activity) value.
result: 2.19
